Target: T1, phAimR^C6S/C74S/C99S/C136S/C223S/C267S/D174C, labelled with Alexa488 and Cy5 (Bacillus phage phi3T, UniProt P0DOE3 1-378, C6S | C74S | C99S | C136S | C223S | C267S | D174C, Alexa Fluor 488 C5 maleimide or Cy5 maleimide on the cysteine at D174C)
T1 construct: AimR of Bacillus phage phi3T (GenBank KY030782.1), six solvent-exposed cysteines changed to serine and D174C added for labelling; One dye per chain; the doubly labelled species is a dimer with Alexa488 on one subunit and Cy5 on the other; also called phAimR (D174C labeling site); D174C dye-labeling; source: E. coli BL21 (DE3), purified in the same way as the wild-type phAimR, dye-conjugated, …
T1 sequence: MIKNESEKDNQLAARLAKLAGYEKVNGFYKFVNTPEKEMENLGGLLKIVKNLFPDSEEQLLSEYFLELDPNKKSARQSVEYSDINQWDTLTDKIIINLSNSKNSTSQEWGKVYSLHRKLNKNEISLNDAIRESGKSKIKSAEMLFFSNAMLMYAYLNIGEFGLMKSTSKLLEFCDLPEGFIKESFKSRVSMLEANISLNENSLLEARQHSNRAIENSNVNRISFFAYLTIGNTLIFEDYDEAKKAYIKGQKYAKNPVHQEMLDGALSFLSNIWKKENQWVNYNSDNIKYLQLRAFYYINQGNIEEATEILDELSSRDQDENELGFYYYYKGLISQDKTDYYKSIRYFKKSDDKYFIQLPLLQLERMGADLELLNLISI
Test: FRET or BRET; smFRET in solution; about 100 pM doubly labelled (Alexa488/Cy5) phAimR, peptide titrated; KD from the population of the enriched FRET state; 25 C, 20 mM Tris-HCl pH 7.5, 100 mM NaCl, 0.005% Tween 20, 1 mM L-ascorbic acid, 1 mM methylviologen
Settings: both partners purified
pKd: −log10 of the molar value.

# binder, pKd
measured = [
    ("SAIRGA (mature arbitrium peptide processed from the AimP pro-peptide (43 amino acids) of Bacillus phage phi3T; also called SAIRGA peptide; phi3T-derived peptide) [phi3T arbitrium peptide (SAIRGA)]", 7.64),
]
